Source: patent US10815197B2

# assay-overview: Metabolism stability assay, human liver microsomes
# Assay type: in vitro ADME
# study-conditions: pH 7.4
recorded-metric: half-life at 1 µM (min)
// note: answer is a bare numeric in min

Example molecules with recorded half-life at 1 µM:
smiles-representation: O=C(NS(=O)(=O)C1CC1)c1cc(Cl)c(OC[C@H]2CCCN2c2ccc(C(F)(F)F)nc2)cc1F
measured: 77
//
smiles-representation: Cc1cc(N2CCN(Cc3cc(F)c(C(=O)NS(=O)(=O)C4CC4)cc3Cl)CC2)ccc1Cl
measured: 86.4
//
smiles-representation: Cc1cc(C(=O)NS(=O)(=O)C2CC2)c(F)cc1OC[C@H]1CCCN1c1ccc(C(F)(F)F)cn1
measured: 83.3
//
smiles-representation: O=C(NS(=O)(=O)C1CC1)c1cc(Cl)c(CN2CCN(c3ccc(Cl)c(Cl)c3)CC2)cc1F
measured: 268
//
smiles-representation: O=C(NS(=O)(=O)C1CC1)c1cc(Cl)c(OC[C@H]2CCCN2c2ccc(C(F)(F)F)cc2)cc1F
measured: 47.8

In the following, a different molecule is considered.
stdin: Form field: reported half-life at 1 µM of CCc1cc(N2CCN(Cc3cc(F)c(C(=O)NS(=O)(=O)C4CC4)cc3Cl)CC2)ccc1Cl
stdout: 72.8
